Recorded measurements of logD, one per entry
Test: physchem
Conditions: buffer, pH 7.4

SMILES ENTRY	logD
C[C@H]1CN(C2COC2)CCN1c1ccc(Nc2cc(-c3ccnc(N4CCn5c(cc6c5CC(C)(C)C6)C4=O)c3CO)cn(C)c2=O)nc1	1.6
Cn1cc(-c2ccnc(N3CCn4c(cc5c4CC(C)(C)C5)C3=O)c2CO)cc(Nc2ccc(C3CN(C4COC4)C3)cn2)c1=O	3
COCCCN1CCN(c2ccc(Nc3cc(-c4ccnc(N5CCn6c(cc7c6CC(C)(C)C7)C5=O)c4CO)cn(C)c3=O)nc2)CC1	3.3
C[C@@H]1CN(C2COC2)CCN1c1ccc(Nc2cc(-c3ccnc(N4CCn5c(cc6c5CC(C)(C)C6)C4=O)c3CO)cn(C)c2=O)nc1	2.8
C[C@@H]1CN(C)CCN1c1ccc(Nc2cc(-c3cc(F)cc(N4CCn5c(cc6c5CCCC6)C4=O)c3CO)cn(C)c2=O)nc1	3.1
CN1CCN(c2ccc(Nc3cc(-c4cc(F)cc(N5CCn6c(cc7c6CCCC7)C5=O)c4CO)cn(C)c3=O)nc2)CC1	3.1
CC[C@H]1CN(C2COC2)CCN1c1ccc(Nc2cc(-c3ccnc(N4CCn5c(cc6c5CC(C)(C)C6)C4=O)c3CO)cn(C)c2=O)nc1	3.6

* * *

Biological target: Tyrosine-protein kinase BTK (Homo sapiens, UniProt Q06187)
Sequence (Q06187 whole entry, the tested form may be a part): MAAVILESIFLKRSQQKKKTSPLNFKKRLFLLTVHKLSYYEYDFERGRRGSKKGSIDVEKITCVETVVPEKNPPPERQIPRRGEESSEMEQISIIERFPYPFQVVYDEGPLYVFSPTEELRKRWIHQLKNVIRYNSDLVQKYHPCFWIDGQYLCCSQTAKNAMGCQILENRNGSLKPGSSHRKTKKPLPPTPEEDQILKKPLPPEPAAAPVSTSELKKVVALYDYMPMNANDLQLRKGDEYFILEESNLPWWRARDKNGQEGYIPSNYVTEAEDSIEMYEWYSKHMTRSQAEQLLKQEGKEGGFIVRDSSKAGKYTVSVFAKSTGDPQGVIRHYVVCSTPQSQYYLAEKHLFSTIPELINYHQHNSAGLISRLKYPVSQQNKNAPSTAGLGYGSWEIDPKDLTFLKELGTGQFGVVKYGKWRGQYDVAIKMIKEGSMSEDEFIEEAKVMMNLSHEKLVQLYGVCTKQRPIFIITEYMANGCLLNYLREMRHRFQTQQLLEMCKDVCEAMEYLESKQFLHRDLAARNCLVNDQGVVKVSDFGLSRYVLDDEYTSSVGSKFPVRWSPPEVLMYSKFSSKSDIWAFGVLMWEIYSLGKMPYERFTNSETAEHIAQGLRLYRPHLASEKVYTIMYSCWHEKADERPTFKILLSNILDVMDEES
pIC50: −log10 of the molar value.

SMILES ENTRY	pIC50
Cc1c(-c2c(F)cc(C(N)=O)c3[nH]c4c(c23)CC[C@@H](C(C)(C)O)C4)cccc1-n1c(=O)c2cccc(F)c2n(C)c1=O	6.43

* * *

Biological target: UniProt Q13936
Sequence (Q13936 whole entry): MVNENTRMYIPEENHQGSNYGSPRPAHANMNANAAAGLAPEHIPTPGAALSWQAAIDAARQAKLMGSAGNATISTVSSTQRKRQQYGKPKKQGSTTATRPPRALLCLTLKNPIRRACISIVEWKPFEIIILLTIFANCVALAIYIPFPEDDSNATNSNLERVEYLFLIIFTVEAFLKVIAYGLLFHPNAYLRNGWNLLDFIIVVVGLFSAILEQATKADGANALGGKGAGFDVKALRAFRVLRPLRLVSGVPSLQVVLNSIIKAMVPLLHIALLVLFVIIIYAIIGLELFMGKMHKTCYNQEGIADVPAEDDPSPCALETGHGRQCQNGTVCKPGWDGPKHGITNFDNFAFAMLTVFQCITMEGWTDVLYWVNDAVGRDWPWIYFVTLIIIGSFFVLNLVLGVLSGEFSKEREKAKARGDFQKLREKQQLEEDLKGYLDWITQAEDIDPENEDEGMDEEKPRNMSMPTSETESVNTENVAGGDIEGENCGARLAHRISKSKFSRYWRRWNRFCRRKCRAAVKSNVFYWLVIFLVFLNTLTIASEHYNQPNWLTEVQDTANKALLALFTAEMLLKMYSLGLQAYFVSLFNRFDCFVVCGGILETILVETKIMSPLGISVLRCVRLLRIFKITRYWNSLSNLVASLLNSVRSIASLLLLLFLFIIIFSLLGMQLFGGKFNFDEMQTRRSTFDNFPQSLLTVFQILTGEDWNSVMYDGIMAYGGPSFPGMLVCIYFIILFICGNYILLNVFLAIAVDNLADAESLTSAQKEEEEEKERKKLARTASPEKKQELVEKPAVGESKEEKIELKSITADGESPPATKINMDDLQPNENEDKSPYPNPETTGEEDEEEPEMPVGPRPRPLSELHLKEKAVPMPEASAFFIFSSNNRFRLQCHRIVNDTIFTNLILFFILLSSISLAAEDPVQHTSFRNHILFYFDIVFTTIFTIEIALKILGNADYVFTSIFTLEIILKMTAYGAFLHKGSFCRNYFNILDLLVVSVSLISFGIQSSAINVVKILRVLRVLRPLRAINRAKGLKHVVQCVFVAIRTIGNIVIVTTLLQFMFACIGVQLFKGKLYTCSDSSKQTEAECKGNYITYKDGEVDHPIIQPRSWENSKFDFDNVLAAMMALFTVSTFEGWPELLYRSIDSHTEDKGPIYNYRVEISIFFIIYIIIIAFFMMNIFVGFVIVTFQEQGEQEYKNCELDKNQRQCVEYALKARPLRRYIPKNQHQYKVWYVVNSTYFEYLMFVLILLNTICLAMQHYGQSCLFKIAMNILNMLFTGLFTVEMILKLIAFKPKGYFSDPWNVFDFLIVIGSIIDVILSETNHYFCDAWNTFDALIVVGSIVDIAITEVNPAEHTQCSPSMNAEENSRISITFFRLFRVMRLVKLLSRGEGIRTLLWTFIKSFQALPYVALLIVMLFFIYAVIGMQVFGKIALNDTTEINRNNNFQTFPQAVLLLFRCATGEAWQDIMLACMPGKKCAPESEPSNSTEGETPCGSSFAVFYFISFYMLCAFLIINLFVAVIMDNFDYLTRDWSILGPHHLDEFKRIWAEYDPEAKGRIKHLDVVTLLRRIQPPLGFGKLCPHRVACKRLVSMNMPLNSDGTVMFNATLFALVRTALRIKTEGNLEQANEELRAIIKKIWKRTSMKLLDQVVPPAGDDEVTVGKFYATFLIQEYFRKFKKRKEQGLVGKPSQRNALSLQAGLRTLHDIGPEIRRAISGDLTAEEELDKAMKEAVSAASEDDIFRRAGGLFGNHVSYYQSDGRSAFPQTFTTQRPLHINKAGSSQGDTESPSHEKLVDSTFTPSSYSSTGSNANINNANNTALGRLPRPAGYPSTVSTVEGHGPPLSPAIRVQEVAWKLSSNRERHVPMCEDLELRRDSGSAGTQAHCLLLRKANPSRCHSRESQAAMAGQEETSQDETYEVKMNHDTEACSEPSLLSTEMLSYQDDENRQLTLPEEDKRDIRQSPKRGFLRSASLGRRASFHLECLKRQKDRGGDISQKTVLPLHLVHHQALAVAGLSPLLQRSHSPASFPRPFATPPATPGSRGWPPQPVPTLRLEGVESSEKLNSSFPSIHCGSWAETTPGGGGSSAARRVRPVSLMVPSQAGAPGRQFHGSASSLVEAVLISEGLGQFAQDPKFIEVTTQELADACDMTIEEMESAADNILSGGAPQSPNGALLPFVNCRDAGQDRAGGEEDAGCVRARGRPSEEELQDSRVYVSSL
Assay: Inhibition of human Cav1.2 expressed in CHO cells at 10 uM incubated for 3 to 5 mins by Qpatch clamp assay
Format: cell-based
Conditions: CHO cells expressing human Cav1.2
EXPERIMENTAL ENDPOINT: inhibition at 10 µM (%)

SMILES ENTRY	EXPERIMENTAL ENDPOINT	UNIT ABBREVIATION	RESULT
C[C@H]1CN(C2COC2)CCN1c1ccc(Nc2cc(-c3ccnc(N4CCn5c(cc6c5CC(C)(C)C6)C4=O)c3CO)cn(C)c2=O)nc1	inhibition at 10 µM	%	3.8

* * *

Target: UniProt:P51451
Sequence (P51451 whole entry): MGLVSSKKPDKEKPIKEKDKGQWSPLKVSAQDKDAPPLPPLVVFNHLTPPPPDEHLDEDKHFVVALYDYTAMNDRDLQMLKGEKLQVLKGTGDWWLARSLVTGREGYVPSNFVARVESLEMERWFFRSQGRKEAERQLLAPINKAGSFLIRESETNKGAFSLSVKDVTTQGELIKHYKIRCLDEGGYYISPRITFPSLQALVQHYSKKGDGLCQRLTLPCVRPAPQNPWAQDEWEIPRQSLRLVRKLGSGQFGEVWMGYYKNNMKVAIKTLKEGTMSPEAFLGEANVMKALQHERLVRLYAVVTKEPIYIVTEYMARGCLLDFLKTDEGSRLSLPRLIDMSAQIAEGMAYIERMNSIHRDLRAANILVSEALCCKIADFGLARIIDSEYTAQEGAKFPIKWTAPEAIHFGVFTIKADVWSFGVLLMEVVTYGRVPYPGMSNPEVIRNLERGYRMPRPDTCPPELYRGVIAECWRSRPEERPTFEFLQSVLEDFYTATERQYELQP
Test: Inhibition of recombinant human full length His-tagged BLK expressed in baculovirus at 1 uM by Z'-LYTE assay
Reported inhibition at 1 µM is given for each of the following compounds.
EXPERIMENTAL ENDPOINT: inhibition at 1 µM (%)

SMILES ENTRY	UNIT ABBREVIATION	RESULT
CC#CC(=O)N1CCC[C@H]1c1nc(-c2ccc(C(=O)Nc3ccccn3)cc2)c2c(N)nccn12	%	16
C=CC(=O)N1CCC[C@@H](n2nc(-c3ccc(Oc4ccccc4)cc3)c3c(N)ncnc32)C1	%	102
C=CC(=O)N1CCC(CNc2ncnc(N)c2-c2ccc(Oc3ccccc3)cc2)CC1	%	42
Cc1c(-c2c(F)cc(C(N)=O)c3[nH]c4c(c23)CC[C@@H](C(C)(C)O)C4)cccc1-n1c(=O)c2cccc(F)c2n(C)c1=O	%	82

* * *

Assay: Volume of distribution in rat at 0.2 mg/kg, iv or 1 mg/kg, po administered as single dose via cassette dosing
Format: ADME, organism-based
Conditions: in vivo
EXPERIMENTAL ENDPOINT: Vd (L/kg)

COMPOUND	RESULT
C[C@H]1CN(C2COC2)CCN1c1ccc(Nc2cc(-c3ccnc(N4CCn5c(cc6c5CC(C)(C)C6)C4=O)c3CO)cn(C)c2=O)nc1 [FENEBRUTINIB]	5.42

* * *

Biological target: Tyrosine-protein kinase BTK (Homo sapiens)
Assay: Inhibition of human recombinant C-terminal polyhistidine tagged BTK (1 to 659 residues)-mediated synthetic peptide substrate phosphorylation expressed in baculovirus-infected insect cells
pKi: −log10 of the molar value.

SMILES ENTRY	TESTED SYSTEM	pKi
CC(=O)N1CC2(C1)CN(c1ccc(Nc3cc(-c4ccnc(N5CCn6c(cc7c6CC(C)(C)C7)C5=O)c4CO)cn(C)c3=O)nc1)C2	Tyrosine-protein kinase BTK (Homo sapiens)	8.48
CC[C@H]1CN(C2COC2)CCN1c1ccc(Nc2cc(-c3ccnc(N4CCn5c(cc6c5CC(C)(C)C6)C4=O)c3CO)cn(C)c2=O)nc1	Tyrosine-protein kinase BTK (Homo sapiens)	9.02
C[C@H]1CN(C2COC2)CCN1c1cnc(Nc2cc(-c3ccnc(N4CCn5c(cc6c5CC(C)(C)C6)C4=O)c3CO)cn(C)c2=O)cn1	Tyrosine-protein kinase BTK (Homo sapiens)	9.10
Cn1cc(-c2nccc(N3CCn4c(cc5c4CCCC5)C3=O)c2CO)cc(Nc2ccc(N3CCN(C4COC4)CC3)cn2)c1=O	Tyrosine-protein kinase BTK (Homo sapiens)	8.16
Cn1cc(-c2ccnc(N3CCc4c(sc5c4CCCC5)C3=O)c2CO)cc(Nc2ccc(N3CCN(C4COC4)CC3)cn2)c1=O	Tyrosine-protein kinase BTK (Homo sapiens)	8.22
Cn1cc(-c2ccnc(N3CCn4c(cc5c4CC(C)(C)C5)C3=O)c2CO)cc(Nc2ccc(N3CCN(C4CCOCC4)CC3)cn2)c1=O	Tyrosine-protein kinase BTK (Homo sapiens)	9.35
Cn1cc(-c2ccnc(N3CCn4c(cc5c4CC(C)(C)C5)C3=O)c2CO)cc(Nc2ccc(N3CCN(CCC(F)(F)F)CC3)cn2)c1=O	Tyrosine-protein kinase BTK (Homo sapiens)	8.40
Cn1cc(-c2ccnc(N3CCn4c(cc5c4CC(C)(C)C5)C3=O)c2CO)cc(Nc2ccc(C3CN(C4COC4)C3)cn2)c1=O	Tyrosine-protein kinase BTK (Homo sapiens)	9.37
C[C@@H]1CN(c2ccc(Nc3cc(-c4ccnc(N5CCn6c(cc7c6CC(C)(C)C7)C5=O)c4CO)cn(C)c3=O)nc2)[C@@H](C)CN1C1COC1	Tyrosine-protein kinase BTK (Homo sapiens)	8.89
COCCN1CCN(c2ccc(Nc3cc(-c4ccnc(N5CCn6c(cc7c6CC(C)(C)C7)C5=O)c4CO)cn(C)c3=O)nc2)CC1	Tyrosine-protein kinase BTK (Homo sapiens)	8.92
C[C@@H]1CN(C)CCN1c1ccc(Nc2cc(-c3cc(F)cc(N4CCn5c(cc6c5CCCC6)C4=O)c3CO)cn(C)c2=O)nc1	Tyrosine-protein kinase BTK (Homo sapiens)	9.43
Cn1cc(-c2ccnc(N3CCc4c(sc5c4CC(C)(C)C5)C3=O)c2CO)cc(Nc2ccc(N3CCN(C4COC4)CC3)cn2)c1=O	Tyrosine-protein kinase BTK (Homo sapiens)	9.24
C[C@H]1CN(C)CCN1c1ccc(Nc2cc(-c3cc(F)cc(N4CCn5c(cc6c5CCCC6)C4=O)c3CO)cn(C)c2=O)nc1	Tyrosine-protein kinase BTK (Homo sapiens)	9.19
Cn1cc(-c2ccnc(N3CCn4c(cc5c4CCCC5)C3=O)c2CO)cc(Nc2ccc(N3CCN(C4COC4)CC3)cn2)c1=O	Tyrosine-protein kinase BTK (Homo sapiens)	8.74

* * *

Target: Tyrosine-protein kinase BTK (Homo sapiens, UniProt Q06187)
pIC50: −log10 of the molar value.
EXPERIMENTAL ENDPOINT: pIC50

SMILES ENTRY	RESULT
C[C@H]1CN(C2COC2)CCN1c1cnc(Nc2cc(-c3ccnc(N4CCn5c(cc6c5CC(C)(C)C6)C4=O)c3CO)cn(C)c2=O)cn1	7.29
C[C@H]1CN(C)CCN1c1ccc(Nc2cc(-c3cc(F)cc(N4CCn5c(cc6c5CCCC6)C4=O)c3CO)cn(C)c2=O)nc1	8.34
Cn1cc(-c2nccc(N3CCn4c(cc5c4CCCC5)C3=O)c2CO)cc(Nc2ccc(N3CCN(C4COC4)CC3)cn2)c1=O	6.41
Cn1cc(-c2ccnc(N3CCn4c(cc5c4CC(C)(C)C5)C3=O)c2CO)cc(Nc2ccc(N3CCN(CCC(F)(F)F)CC3)cn2)c1=O	6.94
C[C@H]1CN(C2COC2)CCN1c1ccc(Nc2cc(-c3ccnc(N4CCn5c(cc6c5CC(C)(C)C6)C4=O)c3CO)nn(C)c2=O)nc1	7.79
COCCN1CCN(c2ccc(Nc3cc(-c4ccnc(N5CCn6c(cc7c6CC(C)(C)C7)C5=O)c4CO)cn(C)c3=O)nc2)CC1	7.44
Cc1c(-c2c(F)cc(C(N)=O)c3[nH]c4c(c23)CC[C@@H](C(C)(C)O)C4)cccc1-n1c(=O)c2cccc(F)c2n(C)c1=O	7.05
C[C@H]1CN(c2ccc(Nc3cc(-c4cc(F)cc(N5CCn6c(cc7c6CCCC7)C5=O)c4CO)cn(C)c3=O)nc2)CCN1C	7.56
Cn1cc(-c2cncc(N3CCn4c(cc5c4CCCC5)C3=O)c2CO)cc(Nc2ccc(N3CCN(C4COC4)CC3)cn2)c1=O	7.19
CC(=O)N1CCN(c2ccc(Nc3cc(-c4ccnc(N5CCn6c(cc7c6CC(C)(C)C7)C5=O)c4CO)cn(C)c3=O)nc2)CC1	7.18
Cn1cc(-c2ccnc(N3CCn4c(cc5c4CC(C)(C)C5)C3=O)c2CO)cc(Nc2ccc(N3CCN(C4CCOCC4)CC3)cn2)c1=O	7.50
C[C@@H]1CN(c2ccc(Nc3cc(-c4cc(F)cc(N5CCn6c(cc7c6CCCC7)C5=O)c4CO)cn(C)c3=O)nc2)CCN1C	7.90
COCCCN1CCN(c2ccc(Nc3cc(-c4ccnc(N5CCn6c(cc7c6CC(C)(C)C7)C5=O)c4CO)cn(C)c3=O)nc2)CC1	7.49
CC[C@H]1CN(C2COC2)CCN1c1ccc(Nc2cc(-c3ccnc(N4CCn5c(cc6c5CC(C)(C)C6)C4=O)c3CO)cn(C)c2=O)nc1	7.80
Cn1cc(-c2ccnc(N3CCn4c(cc5c4CCCC5)C3=O)c2CO)cc(Nc2ccc(N3CCN(C4COC4)CC3)cn2)c1=O	7.26
C[C@@H]1CN(C)CCN1c1ccc(Nc2cc(-c3cc(F)cc(N4CCn5c(cc6c5CCCC6)C4=O)c3CO)cn(C)c2=O)nc1	7.77
C[C@@H]1CN(c2ccc(Nc3cc(-c4ccnc(N5CCn6c(cc7c6CC(C)(C)C7)C5=O)c4CO)cn(C)c3=O)nc2)[C@@H](C)CN1C1COC1	7.99
CC(=O)N1CC2(C1)CN(c1ccc(Nc3cc(-c4ccnc(N5CCn6c(cc7c6CC(C)(C)C7)C5=O)c4CO)cn(C)c3=O)nc1)C2	7.48
Cn1cc(-c2ccnc(N3CCn4c(cc5c4CC(C)(C)C5)C3=O)c2CO)cc(Nc2ccc(C3CN(C4COC4)C3)cn2)c1=O	7.63
